Values were extracted from PubChem BioAssay AID2060610.

System: 616215-338-R-J1-PDC complex spheroids, viability % test/control
Test: Anticancer human tumor 616215-338-R-J1-PDC patient-derived colon adenocarcinoma cell line growth inhibition [CLK]; active means viability on the fitted dose curve at most 10% of control; inactive means the rest
Conditions: second compound 1 µM; first compound 0.316 µM
Outcome field: choose from Yes = active, No = inactive

>  <Compound>
Nc1ccccc1NC(=O)c1ccc(CNC(=O)OCc2cccnc2)cc1 + CN1CCN(c2cc(C(=O)Nc3cc4cc(-c5cnn(C)c5)ccc4cn3)ccn2)CC1

>  <Class Label>
Yes

$$$$

## Task Please indicate how the test categorized C=C(F)C(=O)N1CCN(c2nc(OCC3CCCN3C)nc3c2CCN(c2cccc4cccc(Cl)c24)C3)CC1CC#N (stereo not given) + CNC(=O)c1ccc(Nc2nc(OC3CCCC3)c3c(-c4ccc5nc(C)oc5c4)c[nH]c3n2)c(OC)c1 .
## Result No

## Task Could you please tell me the result logged for COC1C=CCC(C)C(C)S(=O)(=O)NC(=O)c2ccc3c(c2)N(CC2CCC21)CC1(CCCc2cc(Cl)ccc21)CO3 (stereo not given) + CNC(=O)c1ccc(Nc2nc(OC3CCCC3)c3c(-c4ccc5nc(C)oc5c4)c[nH]c3n2)c(OC)c1 in this assay?
## Result No

## Task Lab log entry: CC(CO)NC(=O)c1cc(-c2ccc(Cl)cc2)nn(-c2cnn(C)c2)c1=O (stereo not given) + CNC(=O)c1ccc(Nc2nc(OC3CCCC3)c3c(-c4ccc5nc(C)oc5c4)c[nH]c3n2)c(OC)c1 — outcome as called in the assay?
## Result No

## Task Just curious, what result did O=c1[nH]cc(F)c(=O)[nH]1 + CNC(=O)c1ccc(Nc2nc(OC3CCCC3)c3c(-c4ccc5nc(C)oc5c4)c[nH]c3n2)c(OC)c1 get here?
## Result No

---

Test system: 616215-338-R-J1-PDC complex spheroids, viability % test/control
Assay: Anticancer human tumor 616215-338-R-J1-PDC cell line growth inhibition [CLK];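 further: spheroids exposed to agents for 7 days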
Details: second compound 1 µM; first compound 3.16 µM; stronger effect = lower value
The label Satisfied is reserved for viability, T/C strictly under 0.9%; Not satisfied covers values equal to or above it.

>  <Compound>
CC1(C)CCC(CN2CCN(c3ccc(C(=O)NS(=O)(=O)c4ccc(NCC5CCOCC5)c([N+](=O)[O-])c4)c(Oc4cnc5[nH]ccc5c4)c3)CC2)=C(c2ccc(Cl)cc2)C1 + CN1CCN(c2cc(C(=O)Nc3cc4cc(-c5cnn(C)c5)ccc4cn3)ccn2)CC1

>  <Class Label>
Not satisfied

$$$$
>  <Compound>
Nc1ccccc1NC(=O)c1ccc(CNC(=O)OCc2cccnc2)cc1 + CN1CCN(c2cc(C(=O)Nc3cc4cc(-c5cnn(C)c5)ccc4cn3)ccn2)CC1

>  <Class Label>
Not satisfied

$$$$
>  <Compound>
COc1ccc([C@@H](O)c2cc(-c3ncnc4cc(N5CCOCC5)ccc34)c(F)cc2Cl)nn1 + CNC(=O)c1ccc(Nc2nc(OC3CCCC3)c3c(-c4ccc5nc(C)oc5c4)c[nH]c3n2)c(OC)c1

>  <Class Label>
Not satisfied

$$$$

Now consider a different compound.
## Task Please let me know if C=C(F)C(=O)N1CCN(c2nc(OCC3CCCN3C)nc3c2CCN(c2cccc4cccc(Cl)c24)C3)CC1CC#N (configuration not stated) + CNC(=O)c1ccc(Nc2nc(OC3CCCC3)c3c(-c4ccc5nc(C)oc5c4)c[nH]c3n2)c(OC)c1 shows viability, T/C below 0.9%.
## Result Not satisfied
